src = patent US8933067B2

# IC50 values compiled below
- Tested target: EGFR-kinase domain (Homo sapiens, UniProt P00533)
- Construct: 0.35 μg/well poly(GT)biotin and 0.5 μg EGFR-kinase domain/well
- Sequence (P00533 712-979 limits assumed): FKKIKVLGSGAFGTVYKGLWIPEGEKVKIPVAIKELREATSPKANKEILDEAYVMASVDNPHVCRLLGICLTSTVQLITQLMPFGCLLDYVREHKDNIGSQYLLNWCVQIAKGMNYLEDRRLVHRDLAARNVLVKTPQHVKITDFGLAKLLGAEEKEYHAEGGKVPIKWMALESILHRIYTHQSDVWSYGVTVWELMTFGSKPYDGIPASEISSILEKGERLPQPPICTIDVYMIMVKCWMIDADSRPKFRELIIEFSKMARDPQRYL
- Method summary: In vitro inhibition of EGFR (Flash Plate or glass-fiber filter kinase assay)
- Type: biochemical
- Condition info: pIC50; read-out: In vitro kinase activity assay.(C1): IC50 (converted)
Measure: IC50 (nM)

INSERT INTO measurements (molecule, measure, reported) VALUES
  ('OCCCCCNc1ccc2ncnc(Nc3cc(Cl)ccc3O)c2n1 [Intermediate 4]', 'IC50', 5.01),
  ('OCCCCNc1ccc2ncnc(Nc3cc(Cl)ccc3O)c2n1 [Intermediate 3]', 'IC50', 3.98),
  ('Clc1ccc2c(c1)Nc1ncnc3cnc(nc13)NCCCCCCO2 [Compound 2]', 'IC50', 3.16),
  ('OCCCCCCNc1ncc2ncnc(Nc3cc(Cl)ccc3O)c2n1 [Intermediate 6]', 'IC50', 3.98),
  ('OCCCCCCNc1ccc2ncnc(Nc3cc(Cl)ccc3O)c2n1 [Intermediate 2]', 'IC50', 6.31),
  ('Clc1ccc2c(c1)Nc1ncnc3ccc(nc13)NCCCCCCO2 [Compound 1]', 'IC50', 5.01);
